B1: Twister Ribozyme (parent)
chain: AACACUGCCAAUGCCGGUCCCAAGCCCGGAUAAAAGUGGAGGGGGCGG

- Variants of: B1
- assay-protocol: self-cleavage, relative activity (ratio to wild type); higher = more cleavage; co-transcriptional
Threshold rule: self-cleavage greater than or equal to 0.2 is True; below that, False.

Some solved cases for reference:
{"residue-change": "C15U A34G", "discrete-label": "True"}
{"residue-change": "C3G G39C", "discrete-label": "False"}
{"residue-change": "A30G G48U", "discrete-label": "True"}
{"residue-change": "A4C A35C", "discrete-label": "True"}
{"residue-change": "A23C A34U", "discrete-label": "False"}

input: Form field: self-cleavage at least 0.2? Entry: C19U C21A
output: False

input: Form field: self-cleavage at least 0.2? Entry: C5A C27G
output: False

input: Form field: self-cleavage at least 0.2? Entry: C3G G7A
output: False

input: Form field: self-cleavage at least 0.2? Entry: C3A G47A
output: True

input: Form field: self-cleavage at least 0.2? Entry: C25U G48C
output: True

input: Form field: self-cleavage at least 0.2? Entry: A1G U12G
output: True

input: Form field: self-cleavage at least 0.2? Entry: C5U G13U
output: False

input: Form field: self-cleavage at least 0.2? Entry: C15A A30U
output: True
